- measured_target: T1, human ERBB3 on transiently transfected HEK-293 cells (human, UniProt P21860 20-1342)
- T1 construct: also called human ERBB3+ HEK-293 cells
- test_method_notes: flow cytometry, human ERBB3-transfected HEK-293
readout_name: maximum MFI, fold over isotype control background

These recorded examples may help you get a feel for the data.
17H10 IgG1null (antibody, V domains shown, Human IgG1null and human Ckappa) VH: QVQLVESGGGLVKPGGSLRLSCAASGFTFSDYGMSWIRQAPGKGLEWVSTISDGGSYTYYADSVKGRFTISRDNAKNSLYLQMNSLRAEDTAVYYCAREWGDYDGFDEWGQGTLVTVSS VL: DIQMTQSPSSLSASVGDRVTITCRASQSISGYLSWYQQKPGKAPKLLIYAASTLQSGVPSRFSGSGSGTDFTLTISSLQPEDFATYYCLQYDSTPYTFGGGTKVEIK | > 20 fold
MH3 IgG1null (antibody, V domains shown, Designer (Maximally Humanized) clone; Human IgG1null and human Ckappa) VH: QVQLVESGGGLVKPGGSLRLSCAASGFTFSDYSMSWIRQAPGKGLEWVSTISDSGSTIYYADSVKGRFTISRDNAKNSLYLQMNSLRAEDTAVYYCAREWGDYDGFDFWGQGTLVTVSS VL: DIQMTQSPSSLSASVGDRVTITCRASQSISSYLSWYQQKPGKAPKLLIYAASSLQSGVPSRFSGSGSGTDFTLTISSLQPEDFATYYCLQYDSTPLTFGGGTKVEIK | > 20 fold

Which maximum MFI, fold over isotype control background is listed for 11H02 IgG1null (antibody, V domains shown, Human IgG1null and human Ckappa) VH: QVQLVESGGGLVKPGGSLRLSCAASGFTFSDYGMSWIRQAPGKGLEWVSTISDSGSYTYYADSVKGRFTISRDNAKNSLYLQMNSLRAEDTAVYYCAREWGDYDGFDNWGQGTLVTVSS VL: DIQMTQSPSSLSASVGDRVTITCRASQIISSYLSWYQQKPGKAPKLLIYAASSLDSGVPSRFSGSGSGTDFTLTISSLQPEDFATYYCLQYYSTPLTFGGGTKVEIK ?
> 20 fold
